Quick reference: remaining activity at 0.01 µM of the listed items.
Target: STS in MCF-7 cells (Homo sapiens, UniProt P08842)
Construct: The radioisotope cellular assay was performed using the MCF-7 cell line; endogenous in cells; host or cells: MCF-7
Sequence (P08842 22-583): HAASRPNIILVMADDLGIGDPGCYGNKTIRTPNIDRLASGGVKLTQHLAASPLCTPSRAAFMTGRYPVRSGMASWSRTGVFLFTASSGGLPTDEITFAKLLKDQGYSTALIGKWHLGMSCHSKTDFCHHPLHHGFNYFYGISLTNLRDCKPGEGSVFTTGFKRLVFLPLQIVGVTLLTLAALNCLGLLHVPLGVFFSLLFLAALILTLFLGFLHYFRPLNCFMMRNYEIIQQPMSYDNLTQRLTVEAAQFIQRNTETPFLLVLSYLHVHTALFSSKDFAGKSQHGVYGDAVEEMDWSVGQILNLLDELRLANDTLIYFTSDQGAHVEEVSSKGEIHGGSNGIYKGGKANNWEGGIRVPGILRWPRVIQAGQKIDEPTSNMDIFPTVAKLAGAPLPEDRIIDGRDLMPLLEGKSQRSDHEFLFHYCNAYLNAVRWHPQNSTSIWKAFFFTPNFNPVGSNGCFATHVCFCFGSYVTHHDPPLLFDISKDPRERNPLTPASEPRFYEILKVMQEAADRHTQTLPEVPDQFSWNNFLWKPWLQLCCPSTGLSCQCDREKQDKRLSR
Test: radioisotope cellular assay with [3H]E1S in MCF-7 cells
Type: cell-based
Conditions: MCF7, 20 h, read-out: residual STS activity [%] 10 nM

# compound, remaining activity at 0.01 µM
measured = [
    ("NS(=O)(=O)Oc1ccc(-c2cn(-c3cc(Cl)cc(Cl)c3)nn2)cc1 [4b]", "17.8%"),
    ("NS(=O)(=O)Oc1ccc(-c2cn(-c3cccc(Cl)c3)nn2)cc1 [4a]", "28.1%"),
    ("NS(=O)(=O)Oc1ccc(-c2cn(-c3cc(F)cc(F)c3)nn2)cc1 [5l]", "1%"),
    ("NS(=O)(=O)Oc1ccc(-c2cn(-c3cccc(F)c3)nn2)cc1 [5g]", "1%"),
    ("NS(=O)(=O)Oc1ccc(-c2cn(-c3ccc(F)c(F)c3F)nn2)cc1 [5e]", "24.2%"),
]
